Form field: IC50 (one value per entry).
molecular target: MTHFD1 recombinant human enzyme (Homo sapiens, UniProt P11586); test: MTHFD1 inhibition assay (NAD(P)H-Glo luminescence); conditions: MTHFD1 IC50, recombinant human enzyme 200 nM, NADP, band

Worked cases, IC50 given:
COC[C@H]1CN(c2cc(C)c3c4c(c(=O)oc3c2C)CN(C(=O)c2ccc(C(=O)NS(=O)(=O)N3CC5CCCCC5C3)cc2)CC4)CCN1C (some centres unmarked): 1000 to 5000 nM
COC[C@H]1CN(c2ccc3c4c(c(=O)oc3c2C)CN(C(=O)c2ccc(C(=O)NS(=O)(=O)N3CCCC3)c(OC3C[C@@H]5C[C@@H]5C3)c2)CC4)CCN1C (mixture of isomers): 10 to 100 nM
COC[C@H]1CN(c2ccc3c4c(c(=O)oc3c2C)CN(C(=O)c2ccc(C(=O)NS(=O)(=O)N3C5CCC3CC5)c(OC3CCC3)c2F)CC4)CCN1C: 10 to 100 nM

Task: Looking for the measured IC50 of `COC[C@H]1CN(c2ccc3c4c(c(=O)oc3c2C)CN(C(=O)c2ccc(C(=O)NS(=O)(=O)N(C)C(C)C)c(OC3CCC3)c2F)CC4)CCN1C` , can you help?
Result: 1 to 10 nM

Task: Looking for the measured IC50 of `COC[C@H]1CN(c2cc(C)c3c4c(c(=O)oc3c2C)CN(C(=O)c2ccc(C(=O)NS(=O)(=O)N3CCCC3)c(N(C)C)c2F)CC4)CCN1C` , can you help?
Result: 100 to 1000 nM

* * *

biological target: MTHFD2 recombinant human enzyme (Homo sapiens, UniProt P13995); experiment: MTHFD2 inhibition assay (NAD(P)H-Glo luminescence)
Sequence (P13995 36-350): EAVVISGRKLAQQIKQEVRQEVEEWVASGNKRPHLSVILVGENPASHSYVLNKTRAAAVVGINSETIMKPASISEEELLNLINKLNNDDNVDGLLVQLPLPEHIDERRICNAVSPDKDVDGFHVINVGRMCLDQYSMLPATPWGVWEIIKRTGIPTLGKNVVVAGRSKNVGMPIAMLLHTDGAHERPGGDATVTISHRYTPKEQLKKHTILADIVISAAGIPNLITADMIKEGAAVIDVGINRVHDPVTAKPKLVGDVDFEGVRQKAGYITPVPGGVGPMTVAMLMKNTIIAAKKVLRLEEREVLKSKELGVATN
property: IC50

Worked cases, IC50 given:
COC[C@H]1CN(c2cc(C)c3c4c(c(=O)oc3c2C)CN(C(=O)c2cc(OC3CCCC3)c(C(=O)NS(=O)(=O)N(C)C)c(C(F)(F)F)c2)CC4)CCN1C: 10 to 100 nM
COC[C@H]1CN(c2ccc3c4c(c(=O)oc3c2C)CN(C(=O)c2cc(N3CC5CC5C3)c(C(=O)NS(=O)(=O)N3CCCC3)c(C(F)(F)F)c2)CC4)CCN1C (some centres unmarked): 100 to 1000 nM
COC[C@H]1CN(c2cc(Cl)c3c4c(c(=O)oc3c2C)CN(C(=O)c2cc(OC3CC3)c(C(=O)NS(=O)(=O)N3C5CCC3COC5)cc2F)CC4)CCN1C: 10 to 100 nM

Task: Looking for the measured IC50 of COC[C@H]1CN(c2ccc3c4c(c(=O)oc3c2C)CN(C(=O)c2ccc(C(=O)NS(=O)(=O)N3CCCC3)c(OC3C[C@@H]5C[C@@H]5C3)c2)CC4)CCN1C (mixture of isomers) , can you help?
Result: 100 to 1000 nM

Task: Looking for the measured IC50 of COC[C@H]1CN(c2ccc3c4c(c(=O)oc3c2C)CN(C(=O)c2cc(F)c(C(=O)NS(=O)(=O)C3(C)CC3)c(N3CC5CC5C3)c2)CC4)CCN1C (some centres unmarked) , can you help?
Result: 1 to 10 nM

* * *

biological target: MTHFD2 recombinant human enzyme (Homo sapiens); assay: MTHFD2 inhibition assay (NAD(P)H-Glo luminescence); conditions: selectivity of MTHFD2 inhibition over MTHFD1, band
property: MTHFD1/MTHFD2 IC50 ratio

Worked cases, MTHFD1/MTHFD2 IC50 ratio given:
COC[C@H]1CN(c2cc(C)c3c4c(c(=O)oc3c2C)CN(C(=O)c2cc(N(C)C)c(C(=O)NS(=O)(=O)N3CCCC3)cc2Cl)CC4)CCN1C: J (>30)
[2H]C([2H])([2H])Oc1cc(C(=O)N2CCc3c(c(=O)oc4c(C)c(N5CCN(C)[C@@H](COC)C5)cc(Cl)c34)C2)c(F)cc1C(=O)NS(=O)(=O)N1C2CCC1CC2: J (>30)
COC[C@H]1CN(c2cc(C)c3c4c(c(=O)oc3c2C)CN(C(=O)c2ccc(C(=O)NS(=O)(=O)N3CCCC3)c(N(C)C)c2F)CC4)CCN1C: H (>9.0 to 30)
COC[C@H]1CN(c2cc(F)c3c4c(c(=O)oc3c2C)CN(C(=O)c2cc(N(C)C)c(C(=O)NS(=O)(=O)N3CCCC3)cc2F)CC4)CCN1C: J (>30)

Task: Looking for the measured MTHFD1/MTHFD2 IC50 ratio of `COC[C@H]1CN(c2ccc3c4c(c(=O)oc3c2C)CN(C(=O)c2ccc(C(=O)NS(=O)(=O)N(C)C(C)C)c(O[C@@H]3C[C@@H]5C[C@@H]5C3)c2F)CC4)CCN1C` , can you help?
Result: F (<3)

Task: Looking for the measured MTHFD1/MTHFD2 IC50 ratio of COC[C@H]1CN(c2cc(C)c3c4c(c(=O)oc3c2C)CN(C(=O)c2ccc(C(=O)NS(=O)(=O)C3(C)CC3)c(N3CC5CC5C3)c2)CC4)CCN1C (some centres unmarked) , can you help?
Result: H (>9.0 to 30)

Task: Looking for the measured MTHFD1/MTHFD2 IC50 ratio of `COC[C@H]1CN(c2ccc3c4c(c(=O)oc3c2C)CN(C(=O)c2ccc(C(=O)NS(=O)(=O)N(C)C(C)C)c(N3CCCC3)c2)CC4)CCN1C` , can you help?
Result: G (^ 3 to 9.0)

Task: Looking for the measured MTHFD1/MTHFD2 IC50 ratio of `CCOc1c(C(=O)N2CCc3c(c(=O)oc4c(C)c(N5CCN(C)[C@@H](COC)C5)cc(C)c34)C2)ccc(C(=O)NS(=O)(=O)N2CCCC2)c1F` , can you help?
Result: F (<3)

Task: Looking for the measured MTHFD1/MTHFD2 IC50 ratio of `COC[C@H]1CN(c2cc(C)c3c4c(c(=O)oc3c2C)CN(C(=O)c2cc(OC)c(C(=O)NS(=O)(=O)N3CCCC3)c(C(F)(F)F)c2)CC4)CCN1C` , can you help?
Result: H (>9.0 to 30)

Task: Looking for the measured MTHFD1/MTHFD2 IC50 ratio of `COC[C@H]1CN(c2cc(C)c3c4c(c(=O)oc3c2C)CN(C(=O)c2ccc(C(=O)NS(=O)(=O)N3CCCC3)c(OC(F)F)c2F)CC4)CCN1C` , can you help?
Result: G (^ 3 to 9.0)

Task: Looking for the measured MTHFD1/MTHFD2 IC50 ratio of `CCOc1cc(C(=O)N2CCc3c(c(=O)oc4c(C)c(N5CCN(C)[C@@H](COC)C5)cc(Cl)c34)C2)c(F)cc1C(=O)NS(=O)(=O)C1(C)CC1` , can you help?
Result: H (>9.0 to 30)

* * *

biological target: MTHFD2 recombinant human enzyme (Homo sapiens, UniProt P13995); assay: MTHFD2 inhibition assay (NAD(P)H-Glo luminescence); details: selectivity of MTHFD2 inhibition over MTHFD1, band
property: MTHFD1/MTHFD2 IC50 ratio

COC[C@H]1CN(c2ccc3c4c(c(=O)oc3c2C)CN(C(=O)c2ccc(C(=O)NS(=O)(=O)N3CCCC3)c(OC3C[C@@H]5C[C@@H]5C3)c2)CC4)CCN1C (mixture of isomers): F (<3)
COC[C@H]1CN(c2cc(C)c3c4c(c(=O)oc3c2C)CN(C(=O)c2ccc(C(=O)NS(=O)(=O)C3(C)CC3)c(N3CCC[C@H]3C)c2)CC4)CCN1C: F (<3)

* * *

target: MTHFD2 recombinant human enzyme (Homo sapiens); assay: MTHFD2 inhibition assay (NAD(P)H-Glo luminescence)
property: IC50

Worked cases, IC50 given:
COC[C@H]1CN(c2ccc3c4c(c(=O)oc3c2Cl)CN(C(=O)c2ccc(C(=O)NS(=O)(=O)N(C)C)c(OC3CCCC3)c2F)CC4)CCN1C: 1 to 10 nM
COC[C@H]1CN(c2cc(C)c3c4c(c(=O)oc3c2C)CN(C(=O)c2ccc(C(=O)NS(=O)(=O)N(C)C(C)C)c(OC3CCCC3)c2F)CC4)CCN1C: 1 to 10 nM
CCOc1cc(C(=O)N2CCc3c(c(=O)oc4c(C)c(N5CCN(C)[C@@H](COC)C5)cc(C)c34)C2)c(F)cc1C(=O)NS(=O)(=O)N1C[C@@H]2C[C@H]1CO2: 1 to 10 nM

As a next step, examine the compound that follows.
Task: Looking for the measured IC50 of `COC[C@H]1CN(c2cc(C)c3c4c(c(=O)oc3c2C)CN(C(=O)c2cc(N(C)C)c(C(=O)NS(=O)(=O)N3C5CCC3CC5)cc2F)CC4)CCN1C` , can you help?
Result: 1 to 10 nM

* * *

Biological target: MTHFD1 recombinant human enzyme (Homo sapiens, UniProt P11586)
Sequence (P11586 2-291 limits assumed): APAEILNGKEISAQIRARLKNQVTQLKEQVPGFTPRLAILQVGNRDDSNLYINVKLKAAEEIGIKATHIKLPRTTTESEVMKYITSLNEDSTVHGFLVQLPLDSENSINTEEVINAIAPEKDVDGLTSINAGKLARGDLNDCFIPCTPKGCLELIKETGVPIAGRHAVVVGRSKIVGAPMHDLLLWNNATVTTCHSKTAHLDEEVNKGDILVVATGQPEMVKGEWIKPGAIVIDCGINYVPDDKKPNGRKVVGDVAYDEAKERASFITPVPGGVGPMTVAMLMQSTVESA
Test: MTHFD1 inhibition assay (NAD(P)H-Glo luminescence)
Conditions: MTHFD1 IC50, recombinant human enzyme 200 nM, NADP, band
property: IC50

COC[C@H]1CN(c2cc(C)c3c4c(c(=O)oc3c2C)CN(C(=O)c2ccc(C(=O)NS(=O)(=O)N3C5CCC3CC5)cc2Cl)CC4)CCN1C: > 5000 nM
COC[C@H]1CN(c2ccc3c4c(c(=O)oc3c2C)CN(C(=O)c2cc(F)c(C(=O)NS(=O)(=O)N(C)C)c(N3CC5CC5C3)c2)CC4)CCN1C (some centres unmarked): 1 to 10 nM

Task: Looking for the measured IC50 of `COC[C@H]1CN(c2cc(C)c3c4c(c(=O)oc3c2C)CN(C(=O)c2ccc(C(=O)NS(=O)(=O)N3CCCC3)c(N3CCCC3)c2)CC4)CCN1C` , can you help?
Result: 1 to 10 nM

Task: Looking for the measured IC50 of `COC[C@H]1CN(c2cc(C)c3c4c(c(=O)oc3c2C)CN(C(=O)c2ccc(C(=O)NS(=O)(=O)N(C)C)c(N(C)C3CC3)c2)CC4)CCN1C` , can you help?
Result: 10 to 100 nM

Task: Looking for the measured IC50 of `COC[C@H]1CN(c2ccc3c4c(c(=O)oc3c2Cl)CN(C(=O)c2ccc(C(=O)NS(=O)(=O)N(C)C)c(OC3CCC3)c2F)CC4)CCN1C` , can you help?
Result: 1 to 10 nM

Task: Looking for the measured IC50 of `COC[C@H]1CN(c2cc(C)c3c4c(c(=O)oc3c2C)CN(C(=O)c2ccc(C(=O)NS(=O)(=O)N(C)C)c(N3CCC(F)(F)C3)c2)CC4)CCN1C` , can you help?
Result: 10 to 100 nM

Task: Looking for the measured IC50 of `COC[C@H]1CN(c2cc(C)c3c4c(c(=O)oc3c2C)CN(C(=O)c2cc(N)c(C(=O)NS(=O)(=O)N3CCCC3)cc2F)CC4)CCN1C` , can you help?
Result: 1000 to 5000 nM

Task: Looking for the measured IC50 of `COC[C@H]1CN(c2cc(C)c3c4c(c(=O)oc3c2C)CN(C(=O)c2cc(OC3CCCC3)c(C(=O)NS(=O)(=O)N3CCCC3)cc2F)CC4)CCN1C` , can you help?
Result: 10 to 100 nM
